# TEST TARGET: Human immunodeficiency virus type 1 reverse transcriptase (Human immunodeficiency virus 1, UniProt Q72547, K103N)
# PROTOCOL TEXT: Inhibition of HIV1 wild-type reverse transcriptase K103N mutant using [3H]dTTP by scintillation counting

- CPD SMILES: "Cc1cc(C)cc(S(=O)(=O)c2c(C(=O)NCc3ccc(Cl)cc3)[nH]c3ccc(Cl)cc23)c1"
  SIGN: "="
  IC50 [µM]: 7.5
- CPD SMILES: "Cc1ccc(CNC(=O)c2[nH]c3ccc(Cl)cc3c2S(=O)(=O)c2cc(C)cc(C)c2)cc1"
  SIGN: ">"
  IC50 [µM]: 20
- CPD SMILES: "COc1ccc(CNC(=O)c2[nH]c3ccc(Cl)cc3c2S(=O)(=O)c2cc(C)cc(C)c2)cc1"
  SIGN: ">"
  IC50 [µM]: 20
- CPD SMILES: "Cc1cc(C)cc(S(=O)(=O)c2c(C(=O)NCc3ccccc3[N+](=O)[O-])[nH]c3ccc(Cl)cc23)c1"
  SIGN: "="
  IC50 [µM]: 0.023

* * *

# TEST TARGET: Human immunodeficiency virus type 1 reverse transcriptase (Human immunodeficiency virus 1)
# PROTOCOL TEXT: Inhibition of HIV1 wild-type reverse transcriptase Y181I/Y181C mutant using [3H]dTTP by scintillation counting
pIC50: −log10 of the molar value.
PROPERTY LABEL: pIC50

- CPD SMILES: "Cc1cc(C)cc(S(=O)(=O)c2c(C(=O)NCc3ccc(N)cc3)[nH]c3ccc(Cl)cc23)c1"
  TEST TARGET: "Human immunodeficiency virus type 1 reverse transcriptase (Human immunodeficiency virus 1)"
  PROPERTY LABEL: "pIC50"
  OBSERVED: 6.70
- CPD SMILES: "Cc1cc(C)cc(S(=O)(=O)c2c(C(=O)NCc3cccc(F)c3)[nH]c3ccc(Cl)cc23)c1"
  TEST TARGET: "Human immunodeficiency virus type 1 reverse transcriptase (Human immunodeficiency virus 1)"
  PROPERTY LABEL: "pIC50"
  OBSERVED: "< 4.70"
- CPD SMILES: "Cc1cc(C)cc(S(=O)(=O)c2c(C(=O)NCc3ccc([N+](=O)[O-])cc3)[nH]c3ccc(Cl)cc23)c1"
  TEST TARGET: "Human immunodeficiency virus type 1 reverse transcriptase (Human immunodeficiency virus 1)"
  PROPERTY LABEL: "pIC50"
  OBSERVED: "< 4.70"

* * *

# TEST TARGET: Human immunodeficiency virus type 1 reverse transcriptase (Human immunodeficiency virus 1, UniProt Q72547, K103N)
# PROTOCOL TEXT: Inhibition of HIV1 wild-type reverse transcriptase K103N mutant using [3H]dTTP by scintillation counting
pIC50: −log10 of the molar value.

- COMPOUND: "Cc1cccc(CCNC(=O)c2[nH]c3ccc(Cl)cc3c2S(=O)(=O)c2cc(C)cc(C)c2)c1"
  SIGN: "<"
  pIC50: 4.70
- COMPOUND: "Cc1cc(C)cc(S(=O)(=O)c2c(C(=O)N[C@H](C)c3ccccc3)[nH]c3ccc(Cl)cc23)c1"
  SIGN: "="
  pIC50: 7.05
- COMPOUND: "Cc1cc(C)cc(S(=O)(=O)c2c(C(=O)NCCc3ccccc3C)[nH]c3ccc(Cl)cc23)c1"
  SIGN: "="
  pIC50: 4.91
- COMPOUND: "Cc1ccc(CCNC(=O)c2[nH]c3ccc(Cl)cc3c2S(=O)(=O)c2cc(C)cc(C)c2)cc1"
  SIGN: "<"
  pIC50: 4.70
- COMPOUND: "Cc1cc(C)cc(S(=O)(=O)c2c(C(=O)NC(C)c3ccccc3)[nH]c3ccc(Cl)cc23)c1 (racemic)"
  SIGN: "="
  pIC50: 6.27
- COMPOUND: "Cc1cc(C)cc(S(=O)(=O)c2c(C(=O)NCCc3ccc(Cl)cc3)[nH]c3ccc(Cl)cc23)c1"
  SIGN: "="
  pIC50: 7.22
- COMPOUND: "Cc1cc(C)cc(S(=O)(=O)c2c(C(=O)NCc3ccccc3F)[nH]c3ccc(Cl)cc23)c1"
  SIGN: "="
  pIC50: 7.00
- COMPOUND: "Cc1cc(C)cc(S(=O)(=O)c2c(C(=O)NCCc3ccccc3Cl)[nH]c3ccc(Cl)cc23)c1"
  SIGN: "="
  pIC50: 5.50
- COMPOUND: "Cc1cc(C)cc(S(=O)(=O)c2c(C(=O)NCc3ccc(N)cc3)[nH]c3ccc(Cl)cc23)c1"
  SIGN: "="
  pIC50: 7.47
- COMPOUND: "Cc1cc(C)cc(CNC(=O)c2[nH]c3ccc(Cl)cc3c2S(=O)(=O)c2cc(C)cc(C)c2)c1"
  SIGN: "<"
  pIC50: 4.70

* * *

# System: Human immunodeficiency virus 1
# PROTOCOL TEXT: Antiviral activity against HIV1 harboring reverse transcriptase Y181C mutant infected in human MT4 cells assessed as inhibition of virus-induced cell death measured after 5 days of infection by MTT method
# Type: functional, organism-based
# STUDY CONDITIONS: Human immunodeficiency virus 1, MT4, 120 h
Lab note: anything with EC50 below 200 nM is marked Satisfied; values at 200 nM or higher are marked Not satisfied.

- COMPOUND: "Cc1ccnc2c1NC(=O)c1cccnc1N2C1CC1 [NEVIRAPINE]"
  GROUP: "Not satisfied"
- COMPOUND: "Cc1ccc(CCNC(=O)c2[nH]c3ccc(Cl)cc3c2S(=O)(=O)c2cc(C)cc(C)c2)cc1"
  GROUP: "Not satisfied"
- COMPOUND: "O=C1Nc2ccc(Cl)cc2[C@@](C#CC2CC2)(C(F)(F)F)O1 [EFAVIRENZ]"
  GROUP: "Satisfied"
- COMPOUND: "COc1ccc(CNC(=O)c2[nH]c3ccc(Cl)cc3c2S(=O)(=O)c2cc(C)cc(C)c2)cc1"
  GROUP: "Satisfied"
- COMPOUND: "Cc1cc(C)cc(S(=O)(=O)c2c(C(=O)NC(C)c3ccccc3)[nH]c3ccc(Cl)cc23)c1 (racemic)"
  GROUP: "Not satisfied"
- COMPOUND: "Cc1cc(C)cc(S(=O)(=O)c2c(C(=O)NCC(C)c3ccccc3)[nH]c3ccc(Cl)cc23)c1 (racemic)"
  GROUP: "Not satisfied"
- COMPOUND: "Cc1cc(C)cc(S(=O)(=O)c2c(C(=O)N[C@H](C)c3ccccc3)[nH]c3ccc(Cl)cc23)c1"
  GROUP: "Satisfied"
- COMPOUND: "Cc1cc(C)cc(S(=O)(=O)c2c(C(=O)NCc3ccccc3F)[nH]c3ccc(Cl)cc23)c1"
  GROUP: "Not satisfied"
- COMPOUND: "Cc1cc(C)cc(S(=O)(=O)c2c(C(=O)NC(C)Cc3ccccc3)[nH]c3ccc(Cl)cc23)c1 (racemic)"
  GROUP: "Not satisfied"
- COMPOUND: "Cc1cc(C)cc(S(=O)(=O)c2c(C(=O)NCc3cccc(F)c3)[nH]c3ccc(Cl)cc23)c1"
  GROUP: "Satisfied"
